Documented IC50 across a set of compounds
biological target: p-Akt3 in WM115 cells (Homo sapiens); construct: SureFire assays to detect cellular p-Akt1, p-Akt2 and p-Akt3 levels in WM115 cells (Akt2/3) and LNCaP cells (Akt1); endogenous in cells; host or cells: WM115 (ECACC 91061232), insulin-stimulated; experiment: Phospho-Akt cellular SureFire assay, p-Akt3 in WM115 cells; format: cell-based; details: insulin stimulated, read-out: Biological Assay 2 IC50 (nM) Akt3 WM115
Sequence (Q9Y243 whole entry): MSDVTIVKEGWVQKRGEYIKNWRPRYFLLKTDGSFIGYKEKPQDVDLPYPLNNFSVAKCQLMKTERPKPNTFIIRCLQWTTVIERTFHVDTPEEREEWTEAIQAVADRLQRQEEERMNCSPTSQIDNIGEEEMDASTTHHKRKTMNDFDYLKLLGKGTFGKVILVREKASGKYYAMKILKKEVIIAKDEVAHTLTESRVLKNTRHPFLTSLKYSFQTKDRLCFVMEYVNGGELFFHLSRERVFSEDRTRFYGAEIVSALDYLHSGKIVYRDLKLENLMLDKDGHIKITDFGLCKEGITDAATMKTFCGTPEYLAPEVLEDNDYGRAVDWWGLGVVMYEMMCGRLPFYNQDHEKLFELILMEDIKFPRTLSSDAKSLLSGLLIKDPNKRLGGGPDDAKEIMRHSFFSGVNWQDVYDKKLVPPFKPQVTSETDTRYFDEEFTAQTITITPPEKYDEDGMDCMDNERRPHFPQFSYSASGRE
A number alone suffices; assume nM.

[
  {
    "Compound": "CCOC(=O)N(C)[C@H]1CC[C@H](CC(=O)Nc2cc(-c3ccccc3)c(-c3ccc([C@]4(N)C[C@](C)(O)C4)cc3)cn2)CC1",
    "Target system": "p-Akt3 in WM115 cells (Homo sapiens)",
    "IC50 [nM]": 77
  }
]

Ask | For the compound CC(C)(N)c1ccc(-c2nnc(NC(=O)C[C@H]3CC[C@H](N4CCOC4=O)CC3)cc2-c2ccccc2)cc1 , what IC50 is on record?
Reply | 190

Ask | Try the compound CCC(=O)N(C)[C@H]1CC[C@H](CC(=O)Nc2cc(-c3ccccc3)c(-c3ccc([C@]4(N)C[C@](C)(O)C4)cc3)cn2)CC1
Reply | 10

Ask | Try the compound CC(=O)N(C)[C@H]1CC[C@H](CC(=O)Nc2cc(-c3ccsc3)c(-c3ccc([C@]4(N)C[C@H](F)C4)cc3)nn2)CC1
Reply | 46

Ask | Try the compound CC(C)(N)c1ccc(-c2ncc(NC(=O)C[C@H]3CC[C@H](C(=O)N4CCOCC4)CC3)cc2-c2ccccc2)cc1
Reply | 190

Ask | Try the compound CC(=O)N(C)[C@H]1CC[C@H](CC(=O)Nc2cc(-c3ccccc3)c(-c3ccc([C@]4(N)C[C@](C)(O)C4)c(F)c3)nn2)CC1
Reply | 42

---

molecular target: p-Akt2 in WM115 cells (Homo sapiens); construct: SureFire assays to detect cellular p-Akt1, p-Akt2 and p-Akt3 levels in WM115 cells (Akt2/3) and LNCaP cells (Akt1); endogenous in cells; host or cells: WM115 (ECACC 91061232), insulin-stimulated; test: Phospho-Akt cellular SureFire assay, p-Akt2 in WM115 cells; format: cell-based; conditions: insulin stimulated, read-out: Biological Assay 2 IC50 (nM) Akt2 WM115
Sequence (P31751 whole entry): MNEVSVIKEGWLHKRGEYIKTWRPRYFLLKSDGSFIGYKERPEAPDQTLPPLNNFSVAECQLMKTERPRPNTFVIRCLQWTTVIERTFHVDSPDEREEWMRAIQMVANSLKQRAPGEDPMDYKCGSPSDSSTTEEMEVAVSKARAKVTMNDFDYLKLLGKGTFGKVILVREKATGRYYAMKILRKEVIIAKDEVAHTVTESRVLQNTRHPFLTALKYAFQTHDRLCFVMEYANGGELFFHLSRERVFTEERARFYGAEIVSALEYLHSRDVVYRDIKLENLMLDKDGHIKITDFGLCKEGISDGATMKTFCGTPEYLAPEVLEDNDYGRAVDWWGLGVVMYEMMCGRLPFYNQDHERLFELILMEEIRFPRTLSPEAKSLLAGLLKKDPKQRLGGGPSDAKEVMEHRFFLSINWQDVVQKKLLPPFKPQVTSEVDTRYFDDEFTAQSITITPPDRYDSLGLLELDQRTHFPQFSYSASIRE
Test readout: log10 of IC50 (log10 of the value in nM)
Parameter value (number): base-10 log of IC50 in nM.

Some compounds with recorded log10 of IC50:
[
  {
    "Compound": "COCC(=O)N(C)[C@H]1CC[C@H](CC(=O)Nc2cc(-c3ccccc3)c(-c3ccc([C@]4(N)C[C@](C)(O)C4)cc3)cn2)CC1 [Example 107]",
    "Observed result": 2.59
  },
  {
    "Compound": "CN(C(=O)C1CCC1)[C@H]1CC[C@H](CC(=O)Nc2cc(-c3ccccc3)c(-c3ccc(C4(N)CC4)cc3)nn2)CC1 [Example A93]",
    "Observed result": 3.41
  },
  {
    "Compound": "COC(=O)N(C)[C@H]1CC[C@H](CC(=O)Nc2cnc(-c3ccc(C4(N)CCC4)cc3)c(-c3ccccc3)c2)CC1 [Example A1]",
    "Observed result": 3.45
  },
  {
    "Compound": "NC1(c2ccc(-c3cnc(NC(=O)C[C@H]4CC[C@H](N5CCOC5=O)CC4)cc3-c3ccccc3)cc2)CC1 [Example A51]",
    "Observed result": 3.30
  },
  {
    "Compound": "NC1(c2ccc(-c3ncc(NC(=O)C[C@H]4CC[C@H](N5CCOC5=O)CC4)cc3-c3ccccc3)cc2)CCC1 [Example A27]",
    "Observed result": 2.90
  }
]

Here is another compound to look at.
Ask | For the compound COC(=O)N[C@H]1CC[C@H](CC(=O)Nc2cnc(-c3ccc(C4(N)CC(F)(F)C4)cc3)c(-c3ccccc3)c2)CC1 [Example A4] , what log10 of IC50 is on record?
Reply | 3.88
